# Target Desc: UniProtKB Q15722
# Test Method Notes: Inhibition of binding of [3H]LTB4 to the leukotriene B4 receptor of human peripheral neutrophils (PMN) at a concentration of 10 uM.
Assign class by inhibition: not lower than 90% means yes; lower than 90% means no.

Some entries whose results are on file:
[
  {
    "Compound": "C=CCc1cc(C(C)=O)c(OC)cc1OCCCCC#N",
    "Label Class": "no"
  },
  {
    "Compound": "C=CCc1cc(C(C)=O)c(O)cc1OCCCCCCCCC#N",
    "Label Class": "no"
  },
  {
    "Compound": "CCc1cc(C(C)=O)c(O)cc1OCCCCCC(C)(C)C(=O)O",
    "Label Class": "yes"
  },
  {
    "Compound": "C=CCc1cc(C(=O)CC)c(O)cc1OCCCCC#N",
    "Label Class": "no"
  },
  {
    "Compound": "CC(=O)c1cc(CC(C)O)c(OCCCCC#N)cc1O (stereo not drawn)",
    "Label Class": "no"
  }
]

Now examine the next entry.
Kindly determine if inhibition recorded for C=CCc1cc(C(=O)c2ccccc2)c(O)cc1OCCCCC#N is above or exactly 90%.
no

----------
# Target Desc: Leukotriene B4 receptor 1 (Homo sapiens)
# Test Method Notes: Inhibition of [3H]LTB4 binding to leukotriene B4 receptor from human peripheral neutrophils (PMN), at a concentration of 1 uM
Recorded inhibition for the following compounds
Number in %, nothing else.

[
  {
    "Compound": "C=CCc1cc(C(C)=O)c(O)cc1OCc1ccc(CC#N)cc1",
    "Numeric Result": 17
  },
  {
    "Compound": "C=CCc1cc(C(C)=O)c(O)cc1OCCCC",
    "Numeric Result": 8
  },
  {
    "Compound": "C#CCCCCOc1cc(O)c(C(C)=O)cc1CC=C",
    "Numeric Result": 29
  },
  {
    "Compound": "CCc1cc(C(C)=O)c(O)cc1OCCCCCCC(C)(C)C#N",
    "Numeric Result": 30
  },
  {
    "Compound": "CCCc1cc(C(C)=O)c(O)cc1OCCCCCC(=O)O",
    "Numeric Result": 24
  },
  {
    "Compound": "C=CCc1cc(C(=O)c2ccccc2)c(O)cc1OCCCCC#N",
    "Numeric Result": 5
  },
  {
    "Compound": "C=CCc1cc(C(C)=O)c(O)cc1OCCCCCCCC#N",
    "Numeric Result": 52
  },
  {
    "Compound": "C=CCc1cc(C(C)=O)c(O)cc1OCCCCC#N",
    "Numeric Result": 57
  }
]

Input CCc1cc(C(C)=O)c(O)cc1OCCCCCC[S+](C)[O-] (configuration not stated) , output reported inhibition.
50

Input C=CCc1cc(C(C)=O)c(O)cc1OCc1ccccc1C#N , output reported inhibition.
6

Input CCCc1c(OCCCCC#N)ccc(C(C)=O)c1O , output reported inhibition.
9

Input CCc1cc(C(C)=O)c(O)cc1OCCCCC(C)(C)C#N , output reported inhibition.
30

----------
# Target Desc: Leukotriene B4 receptor 1 (Homo sapiens) (UniProt Q15722)
# Sequence (Q15722 whole entry): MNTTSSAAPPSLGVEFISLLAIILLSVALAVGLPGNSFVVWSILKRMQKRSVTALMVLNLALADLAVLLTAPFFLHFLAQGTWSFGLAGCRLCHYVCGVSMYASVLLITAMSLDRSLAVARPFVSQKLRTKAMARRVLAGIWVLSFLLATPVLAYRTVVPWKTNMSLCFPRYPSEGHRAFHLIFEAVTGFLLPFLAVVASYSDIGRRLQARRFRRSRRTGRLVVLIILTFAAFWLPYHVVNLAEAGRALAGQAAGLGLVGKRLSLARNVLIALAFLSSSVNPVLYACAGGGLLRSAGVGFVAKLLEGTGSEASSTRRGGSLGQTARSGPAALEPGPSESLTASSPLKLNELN
# Test Method Notes: Inhibition of [3H]LTB4 binding to leukotriene B4 receptor from human peripheral neutrophils (PMN), at a concentration of 1 uM
So basically every entry gets a class from its inhibition, ranges being small value (below 10%), mid value (10% to below 50%), large value (50% or more)

[
  {
    "Molecule": "CCc1cc(C(C)=O)c(O)cc1OCCCCCC(C)(C)c1nnn(C)n1",
    "Label Class": "large value"
  },
  {
    "Molecule": "C=CCc1cc(C(C)=O)c(O)cc1OCCCCCCCCCCC#N",
    "Label Class": "mid value"
  },
  {
    "Molecule": "CCc1cc(C(C)=O)c(O)cc1OCCCCCC(C)(C)c1nnnn1C",
    "Label Class": "large value"
  },
  {
    "Molecule": "C=CCc1cc(C(C)=O)c(O)cc1OCCCC#N",
    "Label Class": "small value"
  },
  {
    "Molecule": "C=CCc1cc(C(C)=O)c(O)cc1OCCCCCC(=O)OC",
    "Label Class": "large value"
  },
  {
    "Molecule": "CCc1cc(C(C)=O)c(O)cc1OCCCCCn1cncn1",
    "Label Class": "mid value"
  }
]

Kindly state the category for this molecule: CCCCc1cc(C(C)=O)c(O)cc1OCCCCC#N
mid value

Kindly state the category for this molecule: C=CCCCCOc1cc(O)c(C(C)=O)cc1CC=C
mid value

Kindly state the category for this molecule: CCc1cc(C(C)=O)c(O)cc1OCCCCC#N
large value

Kindly state the category for this molecule: CCc1cc(C(C)=O)c(O)cc1OCCCCc1nnn[nH]1
mid value
